Origin of the recorded values: patent US6288091A

Measured IC50 accompanies every entry in the list below.
# SYSTEM: HSV-1 helicase-primase (Human herpesvirus 1, UniProt P10189+P10236)
# Construct: made in house; host or cells: Sf21 insect cells triply infected with recombinant baculoviruses (UL5, UL8, UL52)
# Sequence (P10192 whole entry): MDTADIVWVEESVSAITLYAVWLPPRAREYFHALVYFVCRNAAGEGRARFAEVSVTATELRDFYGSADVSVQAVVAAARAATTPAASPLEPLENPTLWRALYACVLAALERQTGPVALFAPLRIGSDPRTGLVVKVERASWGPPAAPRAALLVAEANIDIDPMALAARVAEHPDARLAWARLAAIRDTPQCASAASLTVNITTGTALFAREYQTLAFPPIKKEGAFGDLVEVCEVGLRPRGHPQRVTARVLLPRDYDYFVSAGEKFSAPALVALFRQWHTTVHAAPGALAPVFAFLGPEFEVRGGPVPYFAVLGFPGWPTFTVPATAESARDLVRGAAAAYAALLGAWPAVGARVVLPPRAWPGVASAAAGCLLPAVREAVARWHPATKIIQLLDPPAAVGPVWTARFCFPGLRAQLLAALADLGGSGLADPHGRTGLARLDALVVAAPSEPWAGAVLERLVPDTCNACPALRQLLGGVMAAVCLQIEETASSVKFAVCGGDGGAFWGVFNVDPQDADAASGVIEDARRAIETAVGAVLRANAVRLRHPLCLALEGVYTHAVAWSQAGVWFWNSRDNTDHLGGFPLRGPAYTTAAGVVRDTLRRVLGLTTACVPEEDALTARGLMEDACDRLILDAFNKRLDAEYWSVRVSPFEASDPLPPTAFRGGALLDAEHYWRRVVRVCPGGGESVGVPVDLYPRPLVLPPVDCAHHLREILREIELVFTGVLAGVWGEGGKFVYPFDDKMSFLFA
# Sequence (P10236 whole entry): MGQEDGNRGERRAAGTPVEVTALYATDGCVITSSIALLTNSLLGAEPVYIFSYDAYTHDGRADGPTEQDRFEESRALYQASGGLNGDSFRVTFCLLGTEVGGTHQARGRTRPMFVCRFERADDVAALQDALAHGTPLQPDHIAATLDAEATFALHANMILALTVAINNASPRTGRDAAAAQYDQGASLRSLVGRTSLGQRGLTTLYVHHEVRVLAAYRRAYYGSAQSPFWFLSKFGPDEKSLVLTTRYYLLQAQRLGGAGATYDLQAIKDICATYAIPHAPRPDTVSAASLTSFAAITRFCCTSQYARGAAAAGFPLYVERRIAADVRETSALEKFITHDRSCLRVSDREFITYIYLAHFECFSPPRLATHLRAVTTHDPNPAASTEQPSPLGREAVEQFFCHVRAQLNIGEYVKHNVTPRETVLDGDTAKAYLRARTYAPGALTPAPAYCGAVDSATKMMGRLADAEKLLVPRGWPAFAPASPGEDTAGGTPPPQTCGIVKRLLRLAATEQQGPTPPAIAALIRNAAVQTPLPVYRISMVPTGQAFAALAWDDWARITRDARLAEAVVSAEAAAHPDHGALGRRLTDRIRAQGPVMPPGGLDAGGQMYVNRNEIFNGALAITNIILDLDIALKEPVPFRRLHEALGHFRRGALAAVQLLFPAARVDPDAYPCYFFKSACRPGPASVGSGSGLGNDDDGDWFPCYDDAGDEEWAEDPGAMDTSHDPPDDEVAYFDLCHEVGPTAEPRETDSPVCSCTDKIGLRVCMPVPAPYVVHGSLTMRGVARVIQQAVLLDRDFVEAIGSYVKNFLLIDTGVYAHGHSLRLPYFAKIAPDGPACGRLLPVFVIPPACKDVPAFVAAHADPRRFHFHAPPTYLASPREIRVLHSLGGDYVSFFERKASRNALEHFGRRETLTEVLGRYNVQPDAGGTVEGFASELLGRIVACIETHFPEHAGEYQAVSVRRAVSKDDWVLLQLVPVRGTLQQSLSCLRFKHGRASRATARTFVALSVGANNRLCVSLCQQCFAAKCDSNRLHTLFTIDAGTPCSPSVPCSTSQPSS
# Sequence (P10189 whole entry): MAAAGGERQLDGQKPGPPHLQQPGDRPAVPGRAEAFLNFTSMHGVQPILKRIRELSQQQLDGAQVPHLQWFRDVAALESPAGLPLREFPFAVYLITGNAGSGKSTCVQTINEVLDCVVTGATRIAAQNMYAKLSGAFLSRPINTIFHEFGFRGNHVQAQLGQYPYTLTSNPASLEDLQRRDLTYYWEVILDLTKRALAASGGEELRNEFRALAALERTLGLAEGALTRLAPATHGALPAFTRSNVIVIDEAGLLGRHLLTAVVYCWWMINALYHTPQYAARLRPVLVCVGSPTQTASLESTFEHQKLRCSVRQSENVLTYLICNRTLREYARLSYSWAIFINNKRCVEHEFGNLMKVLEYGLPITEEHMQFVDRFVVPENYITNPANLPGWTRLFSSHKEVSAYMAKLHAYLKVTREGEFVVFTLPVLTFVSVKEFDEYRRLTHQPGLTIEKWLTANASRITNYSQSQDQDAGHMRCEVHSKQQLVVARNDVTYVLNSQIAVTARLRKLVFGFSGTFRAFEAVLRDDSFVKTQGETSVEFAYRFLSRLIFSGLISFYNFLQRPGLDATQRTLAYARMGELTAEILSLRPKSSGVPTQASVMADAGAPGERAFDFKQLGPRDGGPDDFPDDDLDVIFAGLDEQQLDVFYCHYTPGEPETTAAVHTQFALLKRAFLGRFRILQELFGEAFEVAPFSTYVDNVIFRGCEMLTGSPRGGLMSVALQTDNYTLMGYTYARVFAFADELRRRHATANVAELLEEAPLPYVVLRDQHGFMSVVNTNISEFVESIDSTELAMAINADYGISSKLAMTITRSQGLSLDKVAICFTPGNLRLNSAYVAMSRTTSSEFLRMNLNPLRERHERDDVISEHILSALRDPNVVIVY
# METHOD DESCRIPTION: HSV-1 DNA-dependent ATPase assay (inhibition of HSV-1 helicase-primase)
# Format: biochemical
# SETUP CONDITIONS: Group 1 Table 3 entries
# Procedure: A) HSV-1 DNA-Dependent ATP Assay (an in Vitro Assay Based on the Inhibition of HSV-1 Helicase-primase). […] The DNA-dependent ATPase assay, described by J. J. Crute et al., Nucleic Acids Res. 1988, 16, 6585, was modified and used to evaluate the capability of the compounds of Group 1-formula 1 to inhibit HSV-1 helicase-primase activity. […] DNA-dependent ATPase activity was calculated from the net absorbance change in the presence and absence of inhibition.
QUANTITY NAME: IC50

1) CN(C)c1nc(-c2ccc(NC(=O)CNCc3ccccc3)cc2)cs1: > 50 µM
2) CN(C)c1nc(-c2ccc(NC(=O)CN(Cc3ccccc3)C(=O)c3ccccc3)cc2)cs1: > 50 µM
3) CC(=O)Nc1nc(-c2ccc(NC(=O)CN(Cc3ccccc3)C(=O)c3ccncc3)cc2)cs1: > 50 µM
